Values were extracted from patent US6201006A.

system: trypsin; assay: Inhibitory activity for trypsin; type: biochemical
pIC50: −log10 of the molar value.
readout_type: pIC50

A: CC(=O)N1CCC[C@@H]1C(=O)N1CCC[C@H]1CCc1cc2ccc(C(=N)N)cc2n1C [Compound 170]
B: CCn1c(CC[C@@H]2CCCN2C(=O)[C@H]2CCCN2C(=O)[C@@H](N)CC(N)=O)cc2ccc(C(=N)N)cc21 [Compound 148]
[in] Just curious, which one has the larger pIC50 reading, A or B ? # reply format: chosen label
[out] B
(B: 6.35, A: 5.97)
